target: wild-type HCV genotype 1b NS5B polymerase (Hepatitis C virus genotype 1b, UniProt Q9WMX2); construct: recombinant HCV polymerases (with a deletion of the 21 carboxy terminal amino acids); assay: HCV polymerase enzyme assay, wild-type
pIC50: −log10 of the molar value.
measured_attribute: pIC50

Prompt line: I'm curious: which pIC50 was measured for O=c1ccn([C@@H]2S[C@H](COP(=O)(O)OP(=O)(O)OP(=O)(O)O)[C@@H](O)[C@H]2O)c(=O)[nH]1 [Compound 202] tested on wild-type HCV genotype 1b NS5B polymerase (Hepatitis C virus genotype 1b, UniProt Q9WMX2)?
Response line: 6.00 to 6.60

Prompt line: Enter reported pIC50 observed with wild-type HCV genotype 1b NS5B polymerase (Hepatitis C virus genotype 1b, UniProt Q9WMX2) for Nc1nc2c(ncn2[C@@H]2S[C@H](COP(=O)(O)OP(=O)(O)OP(=O)(O)O)[C@@H](O)[C@H]2O)c(=O)[nH]1 [Compound 203]
Response line: 6.00 to 6.60

Prompt line: Could you share what pIC50 was measured for C[C@@]1(O)[C@H](O)[C@@H](COP(=O)(O)OP(=O)(O)OP(=O)(O)O)S[C@H]1n1ccc(=O)[nH]c1=O [Compound 201] , tested on wild-type HCV genotype 1b NS5B polymerase (Hepatitis C virus genotype 1b, UniProt Q9WMX2)?
Response line: 5.00 to 6.00
